Let's look at some molecules and their measured hEphA5-SEAP-: absorbance at 450 nm, percentage with respect to hEphA4-SEAP-His as 100%.
# target.system: T1, human EphA5 (Homo sapiens, UniProt P54756)
# T1 construct: a protein of the extracellular region of each human Eph receptor fused with the SEAP protein and the His tag; made in house; host or cells: Expi293F cells (culture supernatant)
# T1 sequence (P54756 25-573 limits assumed): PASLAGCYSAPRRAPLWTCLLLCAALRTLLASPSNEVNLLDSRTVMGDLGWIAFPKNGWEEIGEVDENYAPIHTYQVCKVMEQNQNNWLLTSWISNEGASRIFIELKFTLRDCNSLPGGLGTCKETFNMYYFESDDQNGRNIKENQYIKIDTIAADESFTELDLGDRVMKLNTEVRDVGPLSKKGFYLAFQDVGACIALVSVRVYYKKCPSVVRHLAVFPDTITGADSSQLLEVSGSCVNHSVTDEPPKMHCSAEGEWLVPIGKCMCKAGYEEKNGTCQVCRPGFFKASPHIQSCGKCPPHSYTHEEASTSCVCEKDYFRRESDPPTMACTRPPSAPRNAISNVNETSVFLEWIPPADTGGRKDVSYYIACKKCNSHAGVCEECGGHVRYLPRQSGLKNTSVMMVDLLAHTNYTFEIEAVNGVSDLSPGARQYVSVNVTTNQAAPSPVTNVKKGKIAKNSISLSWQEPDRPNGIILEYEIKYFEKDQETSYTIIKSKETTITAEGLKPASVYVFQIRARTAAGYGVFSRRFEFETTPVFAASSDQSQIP
# test.method.notes: Selectivity ELISA of humanized antibodies for human Eph receptor
# Format: binding
# measurement.context: coated protein 1 nM
Number in %, nothing else.

1) 77 (antibody, V domains shown, synthetic humanized antibody heavy chain variable region sequence; synthetic humanized antibody light chain variable region sequence) VH: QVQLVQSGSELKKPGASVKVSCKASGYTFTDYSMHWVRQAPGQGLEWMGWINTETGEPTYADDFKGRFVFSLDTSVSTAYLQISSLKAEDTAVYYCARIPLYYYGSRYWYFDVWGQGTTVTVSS VL: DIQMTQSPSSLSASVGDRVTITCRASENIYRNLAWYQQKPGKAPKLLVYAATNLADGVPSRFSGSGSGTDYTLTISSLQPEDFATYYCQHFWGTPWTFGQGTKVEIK = 4.4

QUERY: Determine its reported hEphA5-SEAP-: absorbance at 450 nm, percentage with respect to hEphA4-SEAP-His as 100%: 95 (antibody, V domains shown, constant regions without entry; synthetic humanized antibody light chain variable region sequence; synthetic humanized antibody heavy chain variable region sequence) VL: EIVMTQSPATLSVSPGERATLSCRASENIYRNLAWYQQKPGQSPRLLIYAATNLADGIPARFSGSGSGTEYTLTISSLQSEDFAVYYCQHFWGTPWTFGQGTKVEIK VH: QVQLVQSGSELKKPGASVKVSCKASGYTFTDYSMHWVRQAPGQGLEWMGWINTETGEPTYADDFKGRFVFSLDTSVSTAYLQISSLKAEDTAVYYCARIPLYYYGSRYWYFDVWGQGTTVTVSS
RESULT: 4.6

QUERY: Determine its reported hEphA5-SEAP-: absorbance at 450 nm, percentage with respect to hEphA4-SEAP-His as 100%: 159 (antibody, V domains shown, synthetic humanized antibody heavy chain variable region sequence; synthetic humanized antibody light chain variable region sequence) VH: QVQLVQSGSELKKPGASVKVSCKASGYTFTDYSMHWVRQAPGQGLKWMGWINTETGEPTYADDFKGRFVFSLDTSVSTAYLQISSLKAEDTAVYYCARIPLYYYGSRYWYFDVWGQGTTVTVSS VL: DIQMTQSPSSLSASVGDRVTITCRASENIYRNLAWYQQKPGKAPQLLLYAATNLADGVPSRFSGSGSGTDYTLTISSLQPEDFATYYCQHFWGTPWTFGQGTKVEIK
RESULT: 5.5

The reported numbers originate from patent US10428140B2.
